# tested.on: B-RAF V600E (Homo sapiens, UniProt P15056, V600E)
# Construct: expressed in transfected cells; host or cells: T-Rex 293 cells (Invitrogen #R71007)
# Sequence (P15056 whole entry V600E): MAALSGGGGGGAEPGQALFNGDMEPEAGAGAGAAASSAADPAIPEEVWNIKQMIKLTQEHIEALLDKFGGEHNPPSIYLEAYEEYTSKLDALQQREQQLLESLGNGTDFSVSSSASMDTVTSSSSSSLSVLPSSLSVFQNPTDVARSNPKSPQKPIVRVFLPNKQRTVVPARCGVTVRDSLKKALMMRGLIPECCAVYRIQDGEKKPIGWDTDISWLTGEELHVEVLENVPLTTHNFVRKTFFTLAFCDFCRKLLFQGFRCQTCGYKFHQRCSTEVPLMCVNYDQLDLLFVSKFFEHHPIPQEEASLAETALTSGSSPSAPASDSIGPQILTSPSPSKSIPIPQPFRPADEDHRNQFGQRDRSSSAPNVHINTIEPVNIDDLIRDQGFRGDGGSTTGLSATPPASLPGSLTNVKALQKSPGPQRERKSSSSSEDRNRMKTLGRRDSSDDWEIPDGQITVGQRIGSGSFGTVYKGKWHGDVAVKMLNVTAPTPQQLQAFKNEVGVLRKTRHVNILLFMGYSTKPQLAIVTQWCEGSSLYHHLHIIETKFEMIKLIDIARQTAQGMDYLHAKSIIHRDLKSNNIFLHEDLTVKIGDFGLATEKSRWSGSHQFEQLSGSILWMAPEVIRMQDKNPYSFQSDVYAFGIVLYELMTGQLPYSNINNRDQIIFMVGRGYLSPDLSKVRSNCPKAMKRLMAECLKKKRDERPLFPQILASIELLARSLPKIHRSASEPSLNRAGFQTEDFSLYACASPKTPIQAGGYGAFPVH
# experiment.notes: Target protein degradation, assay C: T-Rex 293 cells, HA-BRAF_V600E, 384 well format
# Type: cell-based
# assay.conditions: Assay C, T-Rex 293 HA-BRAF_V600E cells, 24 hours, Examples 83-269
# Procedure: C. T-Rex 293 Cells (384 Well Format) T-Rex 293 cells were purchased from Invitrogen (#R71007), and stably transfected with a pcDNA4/TO_HA-BRAF_V600E construct, using 400 ug Zeocin for selection. […] BRAF intensity is quantified in HCS Studio software (ThermoFisher), using a custom script, exported, analyzed using KNIME, and curve curation is performed in an ELN (Scilligence). Cell toxicity is measured via comparing number of nuclei in PROTAC treated wells to DMSO controls. […]

compound | tested.on | DC50
N#Cc1c(NS(=O)(=O)N2CC[C@@H](F)C2)ccc(F)c1Oc1ccc2ncn(-c3cccc(C4CCN(CC5CCN(c6ccc7c(c6)CN([C@H]6CCC(=O)NC6=O)C7=O)CC5)C4)c3)c(=O)c2c1 (stereo partly drawn) [Example 211] | B-RAF V600E (Homo sapiens, UniProt P15056, V600E) | 50 to 500 nM
N#Cc1c(NS(=O)(=O)N2CC[C@@H](F)C2)ccc(F)c1Oc1ccc2ncn(-c3ccc(N4CCC(CN5CCC(c6ccc([C@@H]7CCC(=O)NC7=O)cc6F)CC5)CC4)cc3)c(=O)c2c1 | B-RAF V600E (Homo sapiens, UniProt P15056, V600E) | 50 to 500 nM
N#Cc1c(NS(=O)(=O)N2CC[C@@H](F)C2)ccc(F)c1Oc1ccc2ncn(-c3ccc(N4CCN(C(=O)C5CN(c6ccc7c(c6)CN([C@H]6CCC(=O)NC6=O)C7=O)C5)CC4)cc3)c(=O)c2c1 | B-RAF V600E (Homo sapiens, UniProt P15056, V600E) | > 500 nM
CN(CC1CCN(c2ccc(-n3cnc4ccc(Oc5c(F)ccc(NS(=O)(=O)N6CC[C@@H](F)C6)c5C#N)cc4c3=O)cn2)CC1)[C@H]1C[C@H](Oc2ccc3c(c2)C(=O)N([C@@H]2CCC(=O)NC2=O)C3=O)C1 | B-RAF V600E (Homo sapiens, UniProt P15056, V600E) | > 500 nM
N#Cc1c(NS(=O)(=O)N2CC[C@@H](F)C2)ccc(F)c1Oc1ccc2ncn(-c3ccc(N4CCN(CC5CCN(c6ccc(F)c(C(=O)NC7CCC(=O)NC7=O)c6)CC5)CC4)nc3)c(=O)c2c1 (stereo partly drawn) | B-RAF V600E (Homo sapiens, UniProt P15056, V600E) | 50 to 500 nM
COCCN(CC1CCN(c2ccc(-n3cnc4ccc(Oc5c(F)ccc(NS(=O)(=O)N6CC[C@@H](F)C6)c5C#N)cc4c3=O)cc2)CC1)[C@H]1C[C@@H](Oc2ccc3c(c2)CN([C@H]2CCC(=O)NC2=O)C3=O)C1 | B-RAF V600E (Homo sapiens, UniProt P15056, V600E) | 50 to 500 nM
CCN(C)S(=O)(=O)Nc1ccc(F)c(Oc2ccc3ncn(-c4ccc(N5CCC(CN6CCC(c7ccc8c(c7)CN(C7CCC(=O)NC7=O)C8=O)CC6)CC5)cc4)c(=O)c3c2)c1C#N (stereo not drawn) | B-RAF V600E (Homo sapiens, UniProt P15056, V600E) | 50 to 500 nM
CN(c1ccc(-n2cnc3ccc(Oc4c(F)ccc(NS(=O)(=O)N5CC[C@@H](F)C5)c4C#N)cc3c2=O)cc1)C1CCC(N2CCN(c3ccc4c(c3)CN([C@H]3CCC(=O)NC3=O)C4=O)CC2)CC1 (stereo partly drawn) | B-RAF V600E (Homo sapiens, UniProt P15056, V600E) | > 500 nM
Cc1c(N2CCC(CN3CCN(c4ccc(-n5cnc6ccc(Oc7c(F)ccc(NS(=O)(=O)N8CC[C@@H](F)C8)c7C#N)cc6c5=O)cc4)CC3)CC2)ccc2c1CN(C1CCC(=O)NC1=O)C2=O (single isomer, unassigned) [Example 113] | B-RAF V600E (Homo sapiens, UniProt P15056, V600E) | 50 to 500 nM
